Source listed as the supplement of paper PMC10567573.

B1: TMEM106C (parent)
chain: FTGRDSITCLTCQGTGYIPTEQVN

# Variants of: B1
# assaySummary: protein stability index of a GFP-peptide fusion (GPS, HEK-293T) (PSI 1-6); higher = more stable;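 note: lentivirally expressed fusions sorted by FACS into six bins by GFP to DsRed ratio, PSI derived from sequencing read proportions per bin multiplied by bin number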
# experimentalSetup: c terminus: a fixed tail appended
Documented protein stability index across a set of variants
Respond with the number and no other words.

In [3]: df
Out[3]:
                     inputsequence  quantitativeresult
0   GTGRDSITCLTCQGTGYIPTEQVN [F1G]                4.15
1  FTGRDSITCLTCQWTGYIPTEQVN [G14W]                1.69
2  FTGRDSITCLTCQGTGYIPTYQVN [E21Y]                2.67
3  FTGRDSITCLTCQGTGYIPTCQVN [E21C]                3.11
4   FTGYDSITCLTCQGTGYIPTEQVN [R4Y]                1.65

Any idea what its protein stability index is? The variant is FTGRQSITCLTCQGTGYIPTEQVN [D5Q] 2.17

Any idea what its protein stability index is? The variant is FTYRDSITCLTCQGTGYIPTEQVN [G3Y] 2.45

Any idea what its protein stability index is? The variant is ETGRDSITCLTCQGTGYIPTEQVN [F1E] 4.7
